The measurements presented in this section are drawn from PubChem BioAssay.

Can you tell me z-score for the items I'm about to list?
Assay: PSAC antagonists in infected red cells, primary screen, cell-based, P. falciparum Indochina, OD700, 1 h (AID 1154)
Conditions: P. falciparum Indochina infected RBC osmotic lysis, higher = more signal, called active from +8 up or from −8 down
The source made the active and inactive calls.

Cc1ccc(F)cc1S(=O)(=O)N[C@@H]1CCN(Cc2ccc3[nH]ccc3c2)C1 ... 3.05 (inactive)
O=C1OCCC=C[C@H]2OC34C=CCN(c5ccc(Cl)cc5)C(=O)[C@H]3N(CCO)C(=O)[C@@H]4C12 (stereo not given in full) ... 0.773 (inactive)
[N-]=[N+]=NCc1ccccc1C[C@@]1(C(=O)O)N=C(c2ccc(OCCCO)cc2)O[C@@H]1c1ccccc1CN=[N+]=[N-] ... 22.1 (active)
[N-]=[N+]=NCc1ccccc1C[C@]1(C(=O)N2CCCCC2)N=C(c2ccc(OCCCO)cc2)O[C@H]1c1ccccc1 ... 20.4 (active)
CCCCC=C[C@@H](NC(=O)c1ccc(C(F)(F)F)cc1)c1ccccc1 ... 5.47 (inactive)
CCCCN1CC=CC23O[C@@H]4C=CCOC(=O)[C@@H]4[C@H]2C(=O)N(CCO)[C@@H]3C1=O (stereo not given in full) ... -0.366 (inactive)
C=CC[C@]1(C(=O)OC)N=C(c2ccc(OCCCO)cc2)O[C@H]1c1ccccc1N=[N+]=[N-] ... 30.3 (active)
CC(C)N1CC=CC23O[C@@H]4C=CCCOC(=O)C4[C@H]2C(=O)N(CCCCCO)[C@@H]3C1=O (stereo not given in full) ... 1.42 (inactive)

For each listed entry, give its z-score.
1. COCCCNC(=O)[C@@]1(Sc2ccc(C)cc2)CC(=O)N(C2CCCCC2)[C@@H]1c1ccc(CO)cc1I
2. CC(C)CNC(=O)[C@@H]1c2ccccc2C(=O)N(Cc2ccccc2Cl)[C@H]1c1ccc(CO)cc1

1: 4.53 (inactive); 2: 2.54 (inactive)

====

System: Lefty1
Experiment: Lefty1 binders on small-molecule microarrays, primary screen, biochemical, small-molecule microarray, 635/667 nm fluorescence (AID 1139)
Conditions: small-molecule microarray binding, fluorescence 635/667; higher = more signal
Can you tell me composite z-score for the items I'm about to list?
Numbers only.

Below: 4 molecules and their reported composite z-score.
Cc1ccc(S[C@]2(C(=O)NCC(F)(F)F)CC(=O)N(C3CCCCC3)[C@@H]2c2ccc(CO)cc2)cc1 ... -0.583
C[C@H]1C2[C@H](Cc3ccccc3)NC(=O)[C@]23C(=O)NCC(=O)N2CCC[C@H]2C(=O)NC/C=C\C/C=C/C3[C@@H]2O[C@]12C (stereo not given in full) ... 0.0393
CCCCN1CC=CC23O[C@@H]4/C=C\CCC(C)OC(=O)C4[C@H]2C(=O)N(C(C)CO)[C@@H]3C1=O (stereo not given in full) ... -0.034
CC(=O)NCCCC[C@@H]1NC(=O)[C@H]2C[C@@H](C(=O)NCCCCCC[N+](C)(C)C)[C@@H](c3ccc(O)cc3)N2C1=O ... 1.41

Fill in: composite z-score of COC(=O)Cn1c(C(=O)N(C)C)cc2c1C[C@H]1CN(C(=O)c3ccccc3)[C@@](Cc3ccc(OC)cc3)(C(=O)OC)[C@@H]21 is ___
-0.351

====

Test: small-molecule microarray binders of probe aXIP, primary screen, biochemical, NeuroSMM set, 635/667 nm fluorescence (AID 1119);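 note: probe is the protein aXip251-270 applied at 1 µg/mL to compound-printed slides; binding of probe to printed compounds measured as 667 nm fluorescence plus signal to noise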
Settings: higher = more signal, called active from +8 up or from −8 down
measured quantity: composite Z-score
Numbers only.

Below: 6 molecules and their reported composite Z-score.
C[N+](C)(C)CCCCCCNC(=O)[C@@H]1C[C@@H]2C(=O)N[C@@H](Cc3ccccc3)C(=O)N2[C@@H]1c1ccc(O)cc1 ... 0.609
CN(C)CCCC[C@@H]1NC(=O)[C@@H]2C[C@H](C(=O)NCCCCCCNC(=O)CS)[C@H](c3cccc(OCCO)c3)N2C1=O ... 0.303
CC(C)C[C@H]1NC(=O)[C@@]23C(=O)N[C@@H](Cc4ccccc4)C2[C@H](C)[C@@]2(C)O[C@H]2C3/C=C/C/C=C\CNC(=O)[C@@H]2CCCN2C1=O (stereo partly drawn) ... 0.119
COC(=O)[C@@H]1N=C(c2ccc(OCCCO)cc2)O[C@@H]1c1ccccc1CN=[N+]=[N-] ... 0.443
CN(C)CCCC[C@@H]1NC(=O)[C@H]2C[C@@H](C(=O)NCc3ccc(F)cc3)[C@@H](c3ccc(O)cc3)N2C1=O ... 1.79
C=C(CC1([C@@H](NP(=O)(c2ccccc2)c2ccccc2)[C@H]2C[C@@H]2CCN(C(=O)OCC)S(=O)(=O)c2ccc(C)cc2)CC1)c1ccccc1 ... 0.39

For each listed entry, give its composite Z-score.
1. CCOC(=O)C1=CC[C@@H](c2ccccc2)N(S(=O)(=O)C[Si](C)(C)C)[C@H]1c1ccccc1
2. C#CCN([C@H](/C=C/C1CC1)[C@@H](O)Cc1ccccc1)[C@@H](Cc1ccccc1)C(=O)OC

[-0.17, -0.232]

====

Test system: Sonic hedgehog protein (Shh)
Assay: small-molecule binders of Shh protein, primary screen, biochemical, small-molecule microarray, 635/667 nm fluorescence (AID 1151);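 note: Shh protein binding to compounds spotted on small-molecule microarray slides; score combines spot fluorescence intensity with signal-to-noise across triplicate slides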
Conditions: small-molecule microarray binding, 635 nm fluorescence; higher = more signal
measured quantity: composite z-score
Give bare numbers.

CC(C)c1ccc(NN2C(C(O)C(C)C)C=CC3C(=O)N(c4ccccc4)C(=O)C32)cc1 (stereo not drawn) ... -0.316
Cc1ccc(S(=O)(=O)N2[C@@H](c3ccccc3)C(C(=O)O)=CC[C@H]2c2ccc(C#N)cc2)cc1 ... -0.133

Fill in: composite z-score of CC(C)(C)OC(=O)CC[C@]1(C(N)=O)N=C(c2ccc(OCCCO)cc2)O[C@H]1c1ccccc1CN=[N+]=[N-] is ___
-0.336

====

Experiment: binders of probe aFGF10 on microarray, primary screen, stem cell growth factor project, biochemical, small-molecule microarray, fluorescence 635/667 (AID 1071);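 note: score merges 667 nm spot intensity and signal to noise from triplicate slides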
Settings: higher = more signal
Can you tell me composite z-score for the items I'm about to list?
Answers are plain numbers.

Below: 5 compounds and their reported composite z-score.
C=CC(CO)NC(=O)OCC1c2ccccc2-c2ccccc21 (stereo not given) ... 0.282
COc1ccc(NN2C(C(O)c3cc(C(F)(F)F)cc(C(F)(F)F)c3)C=CC3C(=O)N(C4CCCCC4)C(=O)C32)cc1 (stereo not given) ... 0.397
CC(c1ccccc1)C(O)C1C=CC2C(=O)N(c3ccccc3)C(=O)C2N1Nc1ccc(C#N)cc1 (stereo not given) ... 0.752
C=CCC(OC(C)=O)[C@@H]1[C@@H](N(Cc2ccc(-c3cccc(C(F)(F)F)c3)o2)C(=O)Cc2ccc(OC)cc2)c2cc(OCCCO)ccc2N1C(=O)c1ccc2ccccc2n1 (stereo not given in full) ... 0.745
COc1ccc([Si](C)(C)[C@H]2[C@H](CCn3cc([C@H](O)c4ccccc4)nn3)O[C@@]3(C(=O)N(C)c4c(Br)cc(C)cc43)[C@@H]2C)cc1 ... -0.327

For each listed entry, give its composite z-score.
1. COc1cccc(OC)c1C(=O)O[C@H]1[C@@H]2OC(=O)[C@H](Cc3cccc(Br)c3)C/C=C/C[C@@H](Cc3cccc(Br)c3)C(=O)O[C@H]2[C@@H](OC)O[C@@H]1CO
2. C[N+](C)(C)CCCCCCNC(=O)[C@H]1C[C@H]2C(=O)NCC(=O)N2[C@H]1c1cccc(OCCO)c1
3. COc1ccc(CCNC(=O)[C@@H]2c3ccccc3C(=O)N(CC34CC5CC(CC(C5)C3)C4)[C@H]2c2ccc(CO)cc2)cc1
4. C=CCC(OC(C)=O)[C@@H]1[C@@H](N(Cc2ccc(-c3cccc(C(F)(F)F)c3)o2)C(=O)c2cccc3ccccc23)c2cc(OCCCO)ccc2N1C(=O)c1ccc2ccccc2c1 (stereo not given in full)
5. COCCOC(=O)N1C(=O)[C@@]2(c3cc(C#Cc4ccc(OC)cc4)ccc31)[C@H](C(=O)N1CCCCCCC1)[C@H]1C(=O)O[C@H](c3ccccc3)[C@H](c3ccccc3)N1[C@@H]2c1ccccc1OCCO
6. [N-]=[N+]=NCc1ccccc1[C@@H]1OC(c2ccc(OCCCO)cc2)=N[C@]1(Cc1ccccc1)C(=O)NCc1ccccc1

[0.205, 0.817, 0.239, 0.224, 0.265, 0.22]

For each listed entry, give its composite z-score.
1. C=CC[C@@]1(C(=O)N(C)C)N=C(c2ccc(OCCCO)cc2)O[C@@H]1c1ccccc1
2. CO[C@H]1O[C@H](CO)[C@@H](OC(=O)Nc2ccc(C(F)(F)F)cc2)[C@H](OC(=O)Nc2ccccc2-c2ccccc2)[C@@H]1OC(=O)Nc1ccccc1-c1ccccc1
3. CCCCC(O)C1C=CC2C(=O)NC(=O)C2N1Nc1ccc(Cl)cc1Cl (stereo not given)
4. C[N+](C)(C)CCCCCCNC(=O)[C@@H]1C[C@@H]2C(=O)N[C@@H](Cc3ccccc3)C(=O)N2[C@@H]1c1ccc(O)cc1

1. 0.794
2. 0.94
3. 0.612
4. 0.33
